Tested on: PC49
Assay Text: qHTS profiling for inhibitors of Plasmodium falciparum proliferation (AID 504749); further: nearly all actives have a fitted effect of over 60% in size
Condition: P. falciparum in erythrocytes, SYBR Green DNA, 72 h; series mostly up to 28.7 µM
Inconclusive results are not listed. The source made the active and inactive calls. The call rests on the fitted dose curve; in most records, active means well fitted inhibition curve with a large enough effect; inconclusive means small, poorly fitted or top-dose-only effect; inactive means flat fitted curve, though single readings scatter.
Property Measured: outcome

• O=C1Nc2ccc(Cl)cc2C(c2ccccc2)=NC1O (stereo not drawn) = inactive
• CCC(C)(C)c1ccc(O)cc1 = inactive
• CCCCCCCCCC(=O)O[C@H]1CC[C@H]2[C@@H]3CCC4=CC(=O)CC[C@@H]4[C@H]3CC[C@]12C = inactive

---

Tested on: CP266
Assay Text: qHTS profiling for inhibitors of Plasmodium falciparum proliferation (AID 504749); further: nearly all actives have a fitted effect of over 60% in size
Condition: P. falciparum in erythrocytes, SYBR Green DNA, 72 h; series mostly up to 28.7 µM
Results filed as inconclusive are left out. Active and inactive are the calls of the source. The call rests on the fitted dose curve; in most records, active means well fitted inhibition curve with a large enough effect; inconclusive means small, poorly fitted or top-dose-only effect; inactive means flat fitted curve, though single readings scatter.
Property Measured: outcome

Examples with their reported outcome follow.
* C[C@]12CCC(=O)C=C1CC[C@@H]1[C@@H]2CC[C@]2(C)C(=O)CC[C@@H]12 | inactive
* O=C1c2ccccc2C(=O)c2ccccc21 | inactive
* NC(=O)CS(=O)C(c1ccccc1)c1ccccc1 (configuration not stated) | inactive
* C[C@](O)(CS(=O)(=O)c1ccc(F)cc1)C(=O)Nc1ccc(C#N)c(C(F)(F)F)c1 | inactive
* CCCCCCCCCC(=O)O[C@H]1CC[C@H]2[C@@H]3CCC4=CC(=O)CC[C@@H]4[C@H]3CC[C@]12C | inactive
* Nc1nc(N)nc(NC2CC2)n1 | inactive
* NNc1ccccc1 | inactive
* c1ccc2c(c1)sc1ccccc12 | inactive

Give outcome for all molecules that follow.
1. O=c1[nH]oc2c1CCNC2
2. O=C1c2ccccc2C(=O)C1C(=O)C(c1ccccc1)c1ccccc1
3. CN1C(=O)CC(=O)N(c2ccccc2)c2cc(Cl)ccc21
4. CNC(C)(C)Cc1ccccc1

**Result**
inactive
inactive
inactive
inactive

---

Assay Text: Drug repurposing screens with cells derived from glioblastoma tumor samples (AID 1345199); further: potency means the concentration at half of the fitted maximal effect; nearly all actives have a fitted effect of over 40% in size
Condition: GBM patient neurospheres viability, ATP luminescence, 48 h; tumour line A
Protocol: CD133+ cells were isolated from GBM patient biopsies and cultured as neurospheres. Neurospheres from four patients were used to screen the NCATS pharmaceutical collection (NPC) library of approved drugs and bioactive compounds. […] The neurospheres were incubated with drugs for 48 hours in 1536-well format, then assayed with an ATP content cell viability assay. […]
Results filed as inconclusive are left out. Calls of active or inactive are those of the source. The call rests on the fitted dose curve; in most records, active means well fitted inhibition curve with a large enough effect; inconclusive means small, poorly fitted or top-dose-only effect; inactive means flat fitted curve, though single readings scatter.
Provide the reported Potency of each item.

• O=C(CCCN1CCC2(CC1)C(=O)NCN2c1ccccc1)c1ccc(F)cc1 = 2.24 µM (active)
• C=CCN1C[C@H](C)N([C@H](c2ccc(C(=O)N(CC)CC)cc2)c2cccc(OC)c2)C[C@H]1C = 7.08 µM (active)
• CN1CC[C@]23c4c5ccc(O)c4O[C@H]2[C@@H](O)C=C[C@H]3[C@H]1C5 = 20 µM (active)

Would you kindly look at the next entry?
For this compound ( C[C@](O)(CS(=O)(=O)c1ccc(F)cc1)C(=O)Nc1ccc(C#N)c(C(F)(F)F)c1 ), measured Potency is 12.6 µM (active)

---

Assay Text: qHTS assay to identify small molecule inhibitors of chordoma cells - UCH-2 (AID 1259356)
Condition: UCH-2 chordoma viability, CellTiter-Glo ATP luminescence, 48 h; series mostly up to 46.1 µM
Records with an inconclusive call do not appear. Calls of active or inactive are those of the source. Calls follow the shape of the dose curve; as a rule, active = well fitted cell-killing curve with a large enough effect; inconclusive = small, poorly fitted or top-dose-only effect; inactive = flat fitted curve, though single readings scatter.
Property Measured: outcome

- CN1C(=O)C(O)N=C(c2ccccc2)c2cc(Cl)ccc21 (stereo unspecified): inactive
- CN1C[C@H](C(=O)N[C@]2(C)O[C@@]3(O)[C@@H]4CCCN4C(=O)[C@H](Cc4ccccc4)N3C2=O)C=C2c3cccc4[nH]cc(c34)C[C@H]21: inactive
- COc1ccc2c(c1)C13CCCC[C@@H]1C(C2)N(C)CC3 (stereo partly specified): inactive
- [N-]=[N+]=CC(=O)OC[C@H](N)C(=O)O: inactive

Hi! Can you tell me outcome for each of these compounds?
1. Cc1nnc2n1-c1ccc(Cl)cc1C(c1ccccc1Cl)=NC2
2. NC(=O)c1cc([N+](=O)[O-])cc([N+](=O)[O-])c1
3. CN1C(=O)CCS(=O)(=O)C1c1ccc(Cl)cc1 (stereo unspecified)
4. CCCCCN(C)CCC(O)(P(=O)(O)O)P(=O)(O)O
5. O=c1[nH]oc2c1CCNC2
6. C[C@@H](N)[C@@H](O)c1ccccc1

**Result**
["inactive", "inactive", "inactive", "inactive", "inactive", "inactive"]

outcome for CC(C)c1cccc(C(C)C)c1O is inactive

---

Assay Text: Quantitative High-Throughput drug screen in 47 multiple myeloma cell lines against the NCATS MIPE library collection: OPM1_PLB cell viability assay (AID 1918989); further: nearly all actives have a fitted effect of over 40% in size
Condition: CellTiter-Glo, 48 h; series mostly up to 45.8 µM
Inconclusive results are not listed. Active and inactive are the calls of the source. The call rests on the fitted dose curve; in most records, active means well fitted cell-killing curve with a large enough effect; inconclusive means small, poorly fitted or top-dose-only effect, or effect the other way; inactive means no such curve, though single readings can be large or run the other way.
Can you answer with just one of these options? active, inactive

**Query** For this compound, state the assay outcome: CN1C(=O)CCS(=O)(=O)C1c1ccc(Cl)cc1 (centres undefined)
**Result** inactive

**Query** Entry CC(C)C[C@H](CN)CC(=O)O : call = ?
**Result** inactive

**Query** Field: outcome | Entry: C[C@]12CC[C@@H]3c4ccc(OC(=O)N(CCCl)CCCl)cc4CC[C@H]3[C@@H]1CC[C@@H]2OP(=O)(O)O
**Result** inactive

**Query** Tell me the assay call for C[C@]12CC[C@H]3[C@@H](CC[C@@]45O[C@H]4C(O)=C(C#N)C[C@]35C)[C@H]1CC[C@H]2O please.
**Result** inactive

**Query** What classification did CC(C)c1cccc(C(C)C)c1O end up with in this test?
**Result** inactive

**Query** What was the test verdict on COc1cc(OC)c(OC)cc1C=O ?
**Result** inactive

**Query** // outcome(item) with item = C[C@](O)(CS(=O)(=O)c1ccc(F)cc1)C(=O)Nc1ccc(C#N)c(C(F)(F)F)c1
**Result** active

**Query** Outcome? C[C@]12CCC(=O)C=C1CC[C@@H]1[C@H]3CC[C@](C)(O)[C@@]3(C)CC[C@@H]12
**Result** inactive

**Query** Which outcome was entered for the compound CCC1(c2ccc(N)cc2)CCC(=O)NC1=O (centres undefined) in this test?
**Result** inactive

---

Test system: CP217
Assay Text: qHTS profiling for inhibitors of Plasmodium falciparum proliferation (AID 504749); further: nearly all actives have a fitted effect of over 60% in size
Condition: P. falciparum in erythrocytes, SYBR Green DNA, 72 h; series mostly up to 28.7 µM
Inconclusive results are not listed. Activity calls are given as the source filed them. The call rests on the fitted dose curve; in most records, active means well fitted inhibition curve with a large enough effect; inconclusive means small, poorly fitted or top-dose-only effect; inactive means flat fitted curve, though single readings scatter.
Select the correct class. Options are active, inactive and nothing else.

Known results for compounds:
* COc1c2c(cc3c1OCO3)CCN(C)C2 | inactive
* O=C(N/N=C/c1ccc([N+](=O)[O-])o1)c1cc([N+](=O)[O-])cc([N+](=O)[O-])c1O | active
* NC(=O)CS(=O)C(c1ccccc1)c1ccccc1 (configuration not stated) | inactive
* O=c1[nH]oc2c1CCNC2 | inactive
* O=C1Nc2ccc(Cl)cc2C(c2ccccc2)=NC1O (configuration not stated) | inactive

**Query** For Oc1ccc(Cl)cc1 , what call appears in the results of this test?
**Result** inactive

**Query** // param item: COC1CC(=C(c2cccs2)c2cccs2)C[N+](C)(C)C1 (configuration not stated) ; yields the recorded call
**Result** active

**Query** Give the logged outcome of this assay for the following compound: O=C1c2ccccc2C(=O)C1C(=O)C(c1ccccc1)c1ccccc1
**Result** inactive

**Query** How did this test come out for Cc1nnc2n1-c1ccc(Cl)cc1C(c1ccccc1)=NC2 ?
**Result** inactive

**Query** Lab log entry: COP(=S)(OC)SCN1C(=O)c2ccccc2C1=O — outcome as called in the assay?
**Result** inactive

**Query** Short answer needed: outcome of this test for C=C(C)[C@H]1CN[C@H](C(=O)O)[C@H]1CC(=O)O ?
**Result** inactive

**Query** I would be grateful if you could indicate the recorded call for Clc1ccc(C(c2ccc(Cl)cc2)C(Cl)(Cl)Cl)cc1 .
**Result** inactive

---

Assay Text: Quantitative High-Throughput drug screen in 47 multiple myeloma cell lines against the NCATS MIPE library collection: XG1_PLB cell viability assay (AID 1919866); further: nearly all actives have a fitted effect of over 35% in size
Condition: CellTiter-Glo ATP, 48 h; series mostly up to 45.8 µM
Records with an inconclusive call do not appear. Active and inactive are the calls of the source. The call rests on the fitted dose curve; in most records, active means well fitted cell-killing curve with a large enough effect; inconclusive means small, poorly fitted or top-dose-only effect, or effect the other way; inactive means no such curve, though single readings can be large or run the other way.
Please state which outcome applies, choosing from 1 for active, 0 for inactive

• C[C@]12CC[C@H]3[C@@H](CC[C@@]45O[C@H]4C(O)=C(C#N)C[C@]35C)[C@H]1CC[C@H]2O = 0
• CC(C)C[C@H](CN)CC(=O)O = 0
• CN1C(=O)COc2c(C(=O)NC3CN4CCC3CC4)cc(Cl)cc21 (configuration not stated) = 0
• C[C@]12CC[C@@H]3c4ccc(OC(=O)N(CCCl)CCCl)cc4CC[C@H]3[C@@H]1CC[C@@H]2OP(=O)(O)O = 0
• CN1C(=O)CCS(=O)(=O)C1c1ccc(Cl)cc1 (configuration not stated) = 1
• O=C(O)CCCc1ccc(N(CCCl)CCCl)cc1 = 1

We next turn to a different molecule, shown below.
**Query** Dear colleague, could you share the recorded outcome for C[C@](O)(CS(=O)(=O)c1ccc(F)cc1)C(=O)Nc1ccc(C#N)c(C(F)(F)F)c1 when you have a moment?
**Result** 1
